Values were extracted from PubChem BioAssay (NCI).

# System: SK-OV-3 ovarian
# EXPERIMENT SUMMARY: NCI tumour cell line growth inhibition, 48 h
ENDPOINT NAME: TGI

# count of solved cases: 3
• C#CCC[C@@H]1O[C@@]1(C)CC/C=C(\C)CC/C=C/C=O = > 100 µM
• c1ccc(SC2(Sc3ccccc3)CCCC2)cc1 = > 100 µM
• O=C(Nc1ccc(Cl)cc1Cl)c1ccc(NC2=C(Cl)C(=O)N(Cc3ccccc3)C2=O)cc1 = 78.8 µM

[in] Give the measured TGI of C/C=C/[C@@]1(OC(=O)c2ccccc2)C[C@@H]2CCCC[C@@H]21 .
[out] 32.6 µM

[in] Queued: O=C1N[C@H]2c3c(Cl)sc(Cl)c3/C(=N/O)[C@H]2O1
[out] > 100 µM

[in] Queued: CC(=O)NC1C(OCc2ccccc2)OC(CO)C(O)C1OCC(=O)NC(C)C(=O)NC(CCC(=O)NCCCCNc1ccc([N+](=O)[O-])c2[nH]c3ccccc3c(=O)c12)C(N)=O (centres undefined)
[out] > 100 µM
